assay.system: T1, recombinant human FGF23 (R179Q) (human, UniProt Q9GZV9 25-251)
T1 construct: also called rhFGF23(R179Q); hFGF23(R179Q)
T1 sequence (looked up): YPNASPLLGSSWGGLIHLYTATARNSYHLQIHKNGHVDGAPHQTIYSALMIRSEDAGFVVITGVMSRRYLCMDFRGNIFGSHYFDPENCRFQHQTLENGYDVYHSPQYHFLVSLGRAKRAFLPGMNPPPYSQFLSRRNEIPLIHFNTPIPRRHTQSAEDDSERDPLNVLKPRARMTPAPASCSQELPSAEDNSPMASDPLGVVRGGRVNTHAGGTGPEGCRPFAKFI
assay.details: SPR, antibody captured on hIgG chip, rhFGF23(R179Q) analyte
Listing: Ratio (variant antibody KD/burosumab KD) of selected binders

- binder: "UGX178 (antibody, human IgG1, kappa, V domains shown, also called HC:N31F, HC:S59F) VH: QVQLVQSGAEVKKPGASVKVSCKASGYTFTFHYMHWVRQAPGQGLEWMGIINPISGSTFNAQKFQGRVTMTRDTSTSTVYMELSSLRSEDTAVYYCARDIVDAFDFWGQGTMVTVSS VL: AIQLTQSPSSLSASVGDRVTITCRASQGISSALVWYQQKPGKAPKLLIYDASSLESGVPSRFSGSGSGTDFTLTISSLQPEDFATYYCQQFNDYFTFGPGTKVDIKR"
  Ratio (variant antibody KD/burosumab KD): 1
- binder: "UGX156 (antibody, human IgG1, kappa, V domains shown, also called HC:I54F; I54F) VH: QVQLVQSGAEVKKPGASVKVSCKASGYTFTNHYMHWVRQAPGQGLEWMGIINPFSGSTSNAQKFQGRVTMTRDTSTSTVYMELSSLRSEDTAVYYCARDIVDAFDFWGQGTMVTVSS VL: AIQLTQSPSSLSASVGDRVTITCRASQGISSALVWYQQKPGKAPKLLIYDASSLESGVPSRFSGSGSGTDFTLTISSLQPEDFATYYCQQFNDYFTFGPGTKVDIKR"
  Ratio (variant antibody KD/burosumab KD): 2
